Entry source: ChEMBL document CHEMBL1201862

Measured GI50 values are reported for all entries that follow.
- Test system: IGROV-1
- ASSAY_NAME: NCI tumour cell line growth inhibition, 48 h
The source made the active and inactive calls. Rule as the data show it: active = GI50 up to about 1.1 µM and inactive = higher.

Solved cases (2 shown):
compound="COc1ccc(C2=Nc3ccccc3SC(C)C2)cc1OC (stereo not drawn)" observed_measurement="14.6 µM (inactive)"
compound="CC1C=C(OC(=O)c2ccccc2)C(=O)C(n2cc(F)c(=O)n(C(=O)c3ccccc3)c2=O)O1 (stereo not drawn)" observed_measurement="> 100 µM (inactive)"

// moving on: another record for GI50
# input Under IGROV-1: GI50 value of COc1cc(C(C)c2cc3c(cc2OCCCCOc2cc4c(cc2C(C)c2cc(OC)c(OC)c(OC)c2)OCO4)OCO3)cc(OC)c1OC (stereo not drawn) ?
# output 49.9 µM (inactive)

* * *

- System: SN12C
- ASSAY_NAME: NCI tumour cell line growth inhibition, 48 h
Active and inactive are the calls of the source. Rule as the data show it: active = GI50 up to about 1.1 µM and inactive = higher.
METRIC_NAME: GI50

compound=CCOc1ccc2nc(-c3ccc(O)cc3)sc2c1 metric_name=GI50 observed_measurement="> 100 µM (inactive)"

// moving on: another record for GI50
# input What GI50 value was documented for this compound, COc1ccc(C2=C(OC(=O)N(C)C)c3cccn3-c3cc(Cl)ccc3S2)cc1 ?
# output > 10 µM (inactive)

* * *

- Tested on: MCF7
- ASSAY_NAME: NCI tumour cell line growth inhibition, 48 h
Calls of active or inactive are those of the source. No stated cut-off is given here; in the data, active = GI50 up to about 1.1 µM and inactive = higher.
Measured GI50 values are reported for all entries that follow.

compound="C=C1C(=O)OC2/C=C(/C)C3(O)OC(C)(CC(OC(=O)C(C)C)C12)CC3OC(C)=O (stereo not drawn)" observed_measurement="3.7 µM (inactive)"
compound=CC(C)(C)OC(=O)NCC(=O)N(CCc1ccc(Cl)c(Cl)c1)CCN1CCCC1 observed_measurement="16.4 µM (inactive)"
compound=COc1ccc(N2C=Nn3c(nc4sc(C)c(C)c4c3=O)C2)cc1 observed_measurement="> 100 µM (inactive)"
compound=Nc1ccc(/N=N/c2ccc(/C=C/c3ccc(/N=N/c4ccc(N)c5ccc(S(=O)(=O)O)cc45)cc3S(=O)(=O)O)c(S(=O)(=O)O)c2)c2cc(S(=O)(=O)O)ccc12 observed_measurement="> 100 µM (inactive)"
compound="CC(=O)C1(c2ccccc2)CCCN(C)CC1 (stereo not drawn)" observed_measurement="> 100 µM (inactive)"
compound=Cc1cc2nc3c(N)nn(CCN(C)C)c3nc2cc1C observed_measurement="29.2 µM (inactive)"

# input Under MCF7: GI50 value of CN1N=C(c2ccncc2)OC1c1cccc(F)c1 (stereo not drawn) ?
# output > 100 µM (inactive)

# input Under MCF7: GI50 value of CCOC(=O)C(C)(C)C(O)C(C)C (stereo not drawn) ?
# output > 100 µM (inactive)

# input Under MCF7: GI50 value of c1ccc(Nc2nnc(-c3ccccc3Nc3ccccc3-c3nnc(Nc4ccccc4)s3)s2)cc1 ?
# output > 100 µM (inactive)

* * *

// each record: one item and its GI50 for HCT-15

Solved cases (8 shown):
compound=CCOC(=O)NN1C(=O)C(=P(c2ccccc2)(c2ccccc2)c2ccccc2)C(C(=O)OC)=C1C observed_measurement="> 100 µM"
compound="C=C1C[C@]23C[C@@]1(O)CC[C@H]2[C@@]12C=C[C@H](O)[C@@](C)(C(=O)O1)[C@H]2[C@@H]3C(=O)O [GIBBERELLIN A3]" observed_measurement="> 100 µM"
compound="COc1ccc(C2=CC3CCC2C3)cc1 (stereo not drawn)" observed_measurement="> 100 µM"
compound=COC(=O)[C@@H](NC1(c2ccccc2)c2ccccc2-c2ccccc21)[C@H](OC(=O)[C@H]1CCCN1S(=O)(=O)c1ccccc1)C(=O)OC observed_measurement="> 100 µM"
compound=Brc1cccc(C2(CCCC3(c4cccc(Br)n4)OCCO3)OCCO2)n1 observed_measurement="> 100 µM"
compound=Cn1c(O)c(C2=Nc3ccccc3C2=O)c2ccccc21 observed_measurement="> 100 µM"
compound="O=c1ccn(C2(CO)C=C(CO)C(O)C2O)c(=O)[nH]1 (stereo not drawn)" observed_measurement="> 25.7 µM"
compound="Nc1ccc2nc3n(c2c1)C(c1c(F)cccc1F)SC3 (stereo not drawn)" observed_measurement="> 100 µM"

# input Under HCT-15: GI50 value of CC(C)(C)C1CCC2(CC1)c1[nH]c3ccccc3c1C1(CCC(C(C)(C)C)CC1)c1[nH]c3ccccc3c12 (stereo not drawn) ?
# output > 100 µM

# input Under HCT-15: GI50 value of CO[P@]1(=O)O[C@@H](c2ccccc2)[C@H](O)[C@]1(O)c1ccccc1 ?
# output > 100 µM

# input Under HCT-15: GI50 value of COc1ccc(OC)c2sc(N3C(=O)/C(=C/c4cccc([N+](=O)[O-])c4)N=C3c3ccccc3)nc12 ?
# output 61.5 µM

# input Under HCT-15: GI50 value of COc1cccc(-c2cc(O)c3cccnc3n2)c1 ?
# output 0.0873 µM

# input Under HCT-15: GI50 value of O=C(c1ccccc1)c1c(CC(O)c2ccccn2)n(C(=O)c2ccccc2)c2ccccc12 (stereo not drawn) ?
# output 23.4 µM

* * *

- Test system: SK-MEL-2
- ASSAY_NAME: NCI tumour cell line growth inhibition, 48 h
Active and inactive are the calls of the source. Rule as the data show it: active = GI50 up to about 1.1 µM and inactive = higher.
Measured GI50 values are reported for all entries that follow.

Solved cases (10 shown):
molecule=CC1=NC(C)(C)[N+]([O-])=C1 metric_name=GI50 observed_measurement="> 10 µM (inactive)"
molecule=CCCCCCCCSC1=C(Cl)C(=O)C(OC)=C(OC)C1=O metric_name=GI50 observed_measurement="15.4 µM (inactive)"
molecule="O=C1NN=C(c2ccc([N+](=O)[O-])cc2)C1n1nc(-c2ccccc2)c2ccccc2c1=O (stereo not given)" metric_name=GI50 observed_measurement="> 100 µM (inactive)"
molecule=Brc1cccc(C2(CCCC3(c4cccc(Br)n4)OCCO3)OCCO2)n1 metric_name=GI50 observed_measurement="> 100 µM (inactive)"
molecule="CCOC(=O)C1=C(C)N(NC(=O)c2ccccc2)C2(O)CCCC12C(=O)OCC (stereo not given)" metric_name=GI50 observed_measurement="> 100 µM (inactive)"
molecule="CON1C(=O)C2(CCCCC2)C(=O)C12C=CC(C)CC2 (stereo not given)" metric_name=GI50 observed_measurement="> 100 µM (inactive)"
molecule="C=C(C)C(O)C(O)C[C@@H](C)C1CC[C@]23C[C@]12CCC1[C@@]2(C)CCC(OC(C)=O)C(C)(C)C2CC(OC2OC(CO)C(O)C(O)C2O)[C@]13C (stereo not given in full)" metric_name=GI50 observed_measurement="16.6 µM (inactive)"
molecule=CC(C)C.C[N+](C)(C)C.OC(c1ccccc1)(C(F)(F)F)C(F)(F)F.OC(c1ccccc1)(C(F)(F)F)C(F)(F)F.[SiH3-] metric_name=GI50 observed_measurement="9.1 µM (inactive)"
molecule=C=C(CC[C@@H](C(=O)O)[C@H]1[C@H](O)C[C@@]2(C)C3=CC[C@@H](C(=C)C)[C@](C)(CCC(=O)O)C3=CC[C@]12C)C(C)C metric_name=GI50 observed_measurement="18.5 µM (inactive)"
molecule=Cc1cc(O)c(C(C)C)cc1C(=S)Nc1ccc(Cl)cc1 metric_name=GI50 observed_measurement="14.1 µM (inactive)"

# input What GI50 value was documented for this molecule, CN1N=C(c2ccncc2)OC1c1cccc(F)c1 (stereo not given) ?
# output > 100 µM (inactive)

# input What GI50 value was documented for this molecule, CCCCNC(=O)Nc1c(C(N)=O)c2n(c1C(=O)OCC)CCCCC2 ?
# output > 100 µM (inactive)

# input What GI50 value was documented for this molecule, CC1NOC(=O)C1/N=N/c1ccccc1Cl (stereo not given) ?
# output 25.4 µM (inactive)

# input What GI50 value was documented for this molecule, BrC1=CCC23CC=C(Br)[C@H]4CC2(COC3)C[C@@H]1O4 (stereo not given in full) ?
# output 54.7 µM (inactive)

# input What GI50 value was documented for this molecule, O=C(c1ccccc1)c1c(CC(O)c2ccccn2)n(C(=O)c2ccccc2)c2ccccc12 (stereo not given) ?
# output 14.9 µM (inactive)

* * *

- Tested on: SF-539
- ASSAY_NAME: NCI tumour cell line growth inhibition, 48 h
Active and inactive are the calls of the source. Rule as the data show it: active = GI50 up to about 1.1 µM and inactive = higher.
Your answer must be one of the following: active, inactive

For orientation, consider the following solved cases.
molecule=Cc1ccc2nc(-c3ccc(C(C)(C)C)cc3)oc(=O)c2c1 class_assignment=inactive
molecule="CNC(=O)OCC1C2=C(C(=O)C(C)=C(N)C2=O)N2CC3C(N3C)C12OC (centres undefined)" class_assignment=inactive
molecule=O=C(/C=C/c1ccc2c(c1)OCO2)Cc1nc2ccccc2[nH]c1=O class_assignment=inactive
molecule=CS(=O)(=O)NNS(=O)(=O)c1cccc([N+](=O)[O-])c1 class_assignment=inactive
molecule="COC12CC(O)=C(C(C)=O)C(=O)C1(C)c1c(OC(C)=O)c(C)c(O)c(C(C)=O)c1O2 (centres undefined)" class_assignment=inactive

# input Outcome logged for CS(=O)(=O)c1ccc(C(=O)O[C@@H]2C(=O)N3CC[C@H]4OC(O)[C@@H]2[C@H]43)cc1 (some centres undefined) in this assay:
# output inactive

# input Outcome logged for BrC1=CCC23CC=C(Br)[C@H]4CC2(COC3)C[C@@H]1O4 (some centres undefined) in this assay:
# output inactive

# input Outcome logged for CC(C)=C1C(=O)C[C@]2(C)C[C@H]3/C(=C(/C)CCC12)CC[C@@]3(C)O (some centres undefined) in this assay:
# output inactive
